Test Target: HLA-A*68:02
Assay Remarks: IEDB peptide-MHC binding, purified MHC/competitive/radioactivity; bounds were set here for any values at or beyond the usual limits of such assays
Settings: source organism: Mammarenavirus juninense
Endpoint Label: IC50 (nM)

Sequence Chain	Test Target	Endpoint Label	Scale Unit	Readout Number
KSGLFQFFV	HLA-A*68:02	IC50	nM	201

----------
Test Target: HLA-A*31:01
Assay Remarks: IEDB peptide-MHC binding, cellular MHC/competitive/fluorescence; bounds were set here for any values at or beyond the usual limits of such assays
Settings: source organism: Hepatitis B virus
pIC50: −log10 of the molar value.
Entries and their pIC50 values follow.
Endpoint Label: pIC50

Sequence Chain	Readout Relation	Readout Number
SMYPSCCCT	=	4.16
FLPSDFFPSV	=	4.70
FLLAQFTSA	=	4.59
GLSRYVARV	=	4.61
FLLAQFTSAI	=	4.79
LLWFHISCL	=	5.05
VLLDYQGML	=	4.89
KVGAGAFGL	=	4.90
FLLTRILTI	≤	4.15
NLSWLSLDV	=	4.81
CLRRFIIFL	=	5.18
HLYSHPIIL	=	4.34
FLCKQYLNL	=	4.58
FLAPLPIHTA	≤	4.15
WLSLLVPFV	=	4.93
FLGPLLVLQA	=	4.83
LLPIFFCLWV	=	5.21
YMDDVVLGA	≤	4.15
YQGMLPVCPL	=	4.94
PLLPIFFCL	=	5.01
ALMPLYACI	=	4.30
YLVSFGVWI	≤	4.15
LLVLLDYQGM	=	5.14
HQLDPAFRA	=	4.39
SLYADSPSV	=	4.84
FLLSLGIHL	=	5.17
GLLGWSPQA	=	5.04
RILTIPQSL	=	4.43
SLYSILSPFL	=	5.25

----------
Test Target: HLA-A*02:01
Assay Remarks: IEDB peptide-MHC binding, purified MHC/competitive/radioactivity; bounds were set here for any values at or beyond the usual limits of such assays
Settings: source organism: Vaccinia virus WR
As shown below, each of these sequences has a reported IC50 value.
Endpoint Label: IC50 (nM)

Sequence Chain	Endpoint Label	Readout Number
YTDSIQDLL	IC50	933
FIDILLFVI	IC50	14
PLLNIGIVL	IC50	1420
RINDDSKSIL	IC50	4360
TLLNETAKV	IC50	28
TIAHINTLI	IC50	255
NMWREILSNT	IC50	997
ILHNIYRLFT	IC50	231
IVFVFILTA	IC50	294
YMFFVIKNL	IC50	21
FLKDVMVEI	IC50	3
DQLVFNSISA	IC50	527
YIEDELRRAA	IC50	573
KLVDICDRI	IC50	6.9
LVDNVDFAT	IC50	461
DMLLNVQTLI	IC50	80
NTFYLFTFT	IC50	492
DASLMDMITL	IC50	206
IVVELEPSL	IC50	2110
QAIMESDSFL	IC50	67
IINSVSIIL	IC50	2090
SLSNLDFRL	IC50	2880
KLPTWLGAA	IC50	207
YLLMHLVSL	IC50	3.5
TVQEFIFSAL	IC50	321
ILFILFFAYV	IC50	139
TMLSIILVI	IC50	1.4
KILSASNRL	IC50	766
LTTVFIKYV	IC50	1060
LTIMGVIFL	IC50	608
SMSQELAELL	IC50	32
FTFGDTALYV	IC50	181
LLPLTSLVI	IC50	1180
TLNTLITLIL	IC50	45
YLLAVCGCI	IC50	13
ILMYPTTLL	IC50	7
FMMVLPGAA	IC50	6.7
RTNDLTALL	IC50	357
SLTTIGTIA	IC50	133
SLLVAPMPT	IC50	935
YIALCKVTV	IC50	15
IMLNGIMYRL	IC50	14
VVTLLCVLPA	IC50	262
RVYKTIWEI	IC50	285

----------
Test Target: HLA-A*02:06
Assay Remarks: IEDB peptide-MHC binding, cellular MHC/competitive/fluorescence; bounds were set here for any values at or beyond the usual limits of such assays
Settings: source organism: Vaccinia virus WR
Response field class: string, computed from recorded IC50 by ranges L = under 10 µM, M = from 10 µM up to 20 µM, H = 20 µM and over

Sequence Chain	Test Target	Classification
LQDIVNEHDI	HLA-A*02:06	M
ELTNKKYRCM	HLA-A*02:06	H
VLQQNNSFI	HLA-A*02:06	L
DTGKKELALT	HLA-A*02:06	L
LISILMIFI	HLA-A*02:06	L
DISVNASKTI	HLA-A*02:06	H
CLKNEGVSGL	HLA-A*02:06	M
EVMPEKRNVV	HLA-A*02:06	M
DIRDKYMEL	HLA-A*02:06	M
LIYYQNEVT	HLA-A*02:06	L
WLRAKRKPAM	HLA-A*02:06	M
SLKRFTHTT	HLA-A*02:06	H
TMKAIEKDRL	HLA-A*02:06	H
ETNIGCAVNT	HLA-A*02:06	H
NISFKSINKV	HLA-A*02:06	M
HAKYMVTDKT	HLA-A*02:06	H
TIAVSVYGAI	HLA-A*02:06	L
IQYRQQLELA	HLA-A*02:06	H
YLSKEDRII	HLA-A*02:06	M
DAEFVMCLEA	HLA-A*02:06	M
VIRNEVNDT	HLA-A*02:06	H
QIYLSDSDNI	HLA-A*02:06	M
DINVIGLIV	HLA-A*02:06	L
EALYYVHSL	HLA-A*02:06	M
EIVKNIREGT	HLA-A*02:06	H
QMYRKFSRCT	HLA-A*02:06	M
IVNNFITKEI	HLA-A*02:06	M
PTIEDDKIVT	HLA-A*02:06	H
NLEELTTVFI	HLA-A*02:06	M
CIVAAVIIM	HLA-A*02:06	H
FISYNRHNDT	HLA-A*02:06	M
VTKRDESSI	HLA-A*02:06	H
NVDVGCLLT	HLA-A*02:06	H
VADLSARNKL	HLA-A*02:06	H
SVDEEGCGPL	HLA-A*02:06	M
VAKCCSKTNT	HLA-A*02:06	H
TIDNIVTSLA	HLA-A*02:06	H
GANGSTAEQL	HLA-A*02:06	H
RTRCKYVGCT	HLA-A*02:06	M
VATFRDMLL	HLA-A*02:06	L
GLCNYGGILI	HLA-A*02:06	L
EIKAEMQLKI	HLA-A*02:06	M
GILIYDDNI	HLA-A*02:06	M
LLKETIQKDI	HLA-A*02:06	H
GTKGKLYIAL	HLA-A*02:06	H
SITPNNLNKI	HLA-A*02:06	H
DMICCDSRIV	HLA-A*02:06	M
ATQFNFNGHT	HLA-A*02:06	H
YIRRNMINKL	HLA-A*02:06	L
TAIRAGYSIV	HLA-A*02:06	L
FIVYGRSNA	HLA-A*02:06	L
NVQSLIKFI	HLA-A*02:06	M
GLILFVLAL	HLA-A*02:06	L
TIEDDKIVTM	HLA-A*02:06	H
LIAGIILLI	HLA-A*02:06	L
ETVKMGAFM	HLA-A*02:06	H
GLIVILFIM	HLA-A*02:06	L
AAAKTPVIVV	HLA-A*02:06	M
VMPEKRNVVV	HLA-A*02:06	H
HLRASTTENA	HLA-A*02:06	H
PASKKESVI	HLA-A*02:06	M
NLYISDYKM	HLA-A*02:06	M
IMECSRMLDT	HLA-A*02:06	H
CVDIFTEGKI	HLA-A*02:06	H
MTSTRTIIL	HLA-A*02:06	L
ETMYLTMKA	HLA-A*02:06	M
ITHTNITTLL	HLA-A*02:06	M
NTLISSDGA	HLA-A*02:06	H
QVKDNIISRT	HLA-A*02:06	H
DVEKEKFVAT	HLA-A*02:06	H
KVYNGIFVDT	HLA-A*02:06	M
RTWKVLSIM	HLA-A*02:06	H
ELVMDKNHAI	HLA-A*02:06	H
NIEIMDKEQL	HLA-A*02:06	L
RLRQDTEDIV	HLA-A*02:06	L
CTEETKRNI	HLA-A*02:06	H
LTHGADPNA	HLA-A*02:06	H
YTLIYRQLT	HLA-A*02:06	M
LTDVEKRIL	HLA-A*02:06	H
EQRRSTIFDI	HLA-A*02:06	H
EILSNTTKTL	HLA-A*02:06	H
PLKDVERLQM	HLA-A*02:06	H
PTRTWKVLSI	HLA-A*02:06	H
